experiment: Volume of distribution at steady state in Sprague-Dawley rat at 10 mg/kg, po or 2 mg/kg, iv by LC-MS/MS analysis; type: ADME, organism-based; settings: in vivo, read-out: Vdss
Readout: Vd (L/kg)
Give bare numbers, in L/kg.

Solved cases (3 shown):
COc1ccc(F)c([C@H]2CC[C@H](COc3cccc([C@H](C4CC4)[C@@H](F)C(=O)O)c3)CC2)c1; 0.9
COc1ccc(F)c([C@H]2CC[C@H](COc3cccc([C@H](C4CC4)[C@@](C)(F)C(=O)O)c3)CC2)c1; 3.2
COc1ccc(F)c([C@H]2CC[C@H](COc3cccc([C@H](C4CC4)[C@H](C)C(=O)O)c3)CC2)c1; 0.9

Fill in the blank: the reported Vd of "COc1ccc(F)c([C@H]2CC[C@H](COc3cccc([C@@H](CC(=O)O)C4CC4)c3)CC2)c1" is ____.
0.2
